Where do the numbers come from? From patent US9346809B2.

- subject-of-test: JAK1 (aa 850-1154, catalytic domain, GST-tag) (Homo sapiens, UniProt P23458)
- Construct: JAK1 (aa 850-1154) and TYK2 (aa 871-1187) are expressed with an N-terminally fused GST-tag; GST (N); purchased Carna Biosciences, Inc; host or cells: baculovirus expression system
- Sequence (P23458 850-1154): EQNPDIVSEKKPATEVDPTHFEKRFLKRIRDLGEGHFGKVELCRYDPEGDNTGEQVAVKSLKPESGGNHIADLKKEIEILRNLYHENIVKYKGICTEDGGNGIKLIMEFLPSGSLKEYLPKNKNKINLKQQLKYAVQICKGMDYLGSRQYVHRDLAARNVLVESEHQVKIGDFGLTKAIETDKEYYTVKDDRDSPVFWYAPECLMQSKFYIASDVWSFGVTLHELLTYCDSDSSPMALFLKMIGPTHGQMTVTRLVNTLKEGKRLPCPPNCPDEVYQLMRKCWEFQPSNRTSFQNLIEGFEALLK
- assay: JAK kinase assay (HTRF, phosphorylation of TK substrate-biotin), JAK1
- Format: biochemical
- assay-setup: ATP at Km (7 μM); read-out: JAK1 kinase inhibitory activity (EC50 indicator)
value-kind: EC50

Quick one: EC50 of COCCCNC(=S)N1[C@@H]2CC[C@H]1CN(c1ncnc3[nH]ccc13)C2 ?
> 500 nM

Now the molecule Cc1c(C(=O)N2C3CCC2CN(c2ncnc4[nH]ccc24)C3)[nH]c2ccc(F)cc12
< 100 nM

Now the molecule N#Cc1cccc(CS(=O)(=O)N2CCN(c3ncnc4[nH]ccc34)CC23CC3)c1
< 100 nM

Now the molecule O=C(NC1CCCCC1)N1[C@@H]2CC[C@H]1CN(c1ncnc3[nH]ccc13)C2
100 to 500 nM

====

Give EC50 for every item shown.
- subject-of-test: TYK2 (aa 871-1187, catalytic domain, GST-tag) (Homo sapiens, UniProt P29597)
- Construct: JAK1 (aa 850-1154) and TYK2 (aa 871-1187) are expressed with an N-terminally fused GST-tag; GST (N); purchased Carna Biosciences, Inc; host or cells: baculovirus expression system
- assay: JAK kinase assay (HTRF, phosphorylation of TK substrate-biotin), TYK2
- Assay type: biochemical
- assay-setup: HTRF assay, ATP at Km (13 μM); read-out: TYK2 kinase inhibitory activity (EC50 indicator)

Quick one: EC50 of O=C(c1ccc(S(=O)(=O)CCO)cc1)N1CCN(c2ncnc3[nH]ccc23)CC12CC2 ?
100 to 500 nM

Now the molecule COC(=O)c1cc2c(N3CCN(C(=O)CCCC#N)C4(CC4)C3)ncnc2[nH]1
> 500 nM

Now the molecule O=C(c1ccccn1)N1[C@@H]2CC[C@@H]1CN(c1ncnc3[nH]ccc13)C2
> 500 nM

Now the molecule Cc1c[nH]c2ncnc(N3CCN(C(=O)Cc4ccc(C(F)(F)F)cc4)C4(CC4)C3)c12
> 500 nM

Now the molecule N#Cc1cccc(C(=O)N2CCN(c3ccnc4[nH]ccc34)CC23CC3)c1
> 500 nM

Now the molecule COc1ncccc1C(=O)N1CCN(c2ncnc3[nH]ccc23)CC12CC2
> 500 nM

Now the molecule N#Cc1ccccc1C(=O)N1CCN(c2ccnc3[nH]ccc23)CC12CC2
> 500 nM

Now the molecule N#CC1(C(=O)N2[C@@H]3CC[C@@H]2CN(c2ncnc4[nH]ccc24)C3)CCOCC1
> 500 nM

====

Give EC50 for every item shown.
- subject-of-test: TYK2 (aa 871-1187, catalytic domain, GST-tag) (Homo sapiens, UniProt P29597)
- Construct: JAK1 (aa 850-1154) and TYK2 (aa 871-1187) are expressed with an N-terminally fused GST-tag; GST (N); purchased Carna Biosciences, Inc; host or cells: baculovirus expression system
- Sequence (P29597 871-1187): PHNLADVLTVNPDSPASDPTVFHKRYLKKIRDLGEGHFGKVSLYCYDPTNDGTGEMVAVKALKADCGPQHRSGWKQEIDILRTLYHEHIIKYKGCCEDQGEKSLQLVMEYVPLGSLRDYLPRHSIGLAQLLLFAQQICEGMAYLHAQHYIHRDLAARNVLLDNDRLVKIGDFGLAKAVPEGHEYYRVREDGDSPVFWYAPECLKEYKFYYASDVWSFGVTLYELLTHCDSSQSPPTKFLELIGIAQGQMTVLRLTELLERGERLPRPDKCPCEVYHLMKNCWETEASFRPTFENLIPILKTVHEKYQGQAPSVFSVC
- assay: JAK kinase assay (HTRF, phosphorylation of TK substrate-biotin), TYK2
- Format: biochemical
- assay-setup: ATP at Km (13 μM); read-out: TYK2 kinase inhibitory activity (EC50 indicator)

Quick one: EC50 of O=C1OCCC1NC(=S)N1[C@@H]2CC[C@H]1CN(c1ncnc3[nH]ccc13)C2 (some centres unmarked) ?
> 500 nM

Now the compound CC1CN(C(=O)C2(C#N)CC2)C2(CC2)CN1c1ncnc2[nH]ccc12 (centres unmarked)
100 to 500 nM

Now the compound O=C(c1ccc2[nH]cnc2c1)N1CCN(c2ncnc3[nH]ccc23)CC12CC2
> 500 nM

Now the compound N#CCCN1CCCC(C(=O)N2CCN(c3ncnc4[nH]ccc34)CC23CC3)C1 (centres unmarked)
> 500 nM

Now the compound CC#CCOC(=O)N1CCN(c2ncnc3[nH]ccc23)CC12CC2
> 500 nM

Now the compound CC(=O)OCC(=O)Nc1nc(N2CCN(C(=O)Cc3ccc(C#N)cc3)C3(CC3)C2)c2cc[nH]c2n1
100 to 500 nM

Now the compound O=C(c1cccnc1)N1CCN(c2ncnc3[nH]ccc23)CC12CC2
> 500 nM

Now the compound O=C(c1cnccn1)N1CCN(c2ncnc3[nH]ccc23)CC12CC2
100 to 500 nM
